System tested: UniProtKB O43614
Sequence (O43614 1-444): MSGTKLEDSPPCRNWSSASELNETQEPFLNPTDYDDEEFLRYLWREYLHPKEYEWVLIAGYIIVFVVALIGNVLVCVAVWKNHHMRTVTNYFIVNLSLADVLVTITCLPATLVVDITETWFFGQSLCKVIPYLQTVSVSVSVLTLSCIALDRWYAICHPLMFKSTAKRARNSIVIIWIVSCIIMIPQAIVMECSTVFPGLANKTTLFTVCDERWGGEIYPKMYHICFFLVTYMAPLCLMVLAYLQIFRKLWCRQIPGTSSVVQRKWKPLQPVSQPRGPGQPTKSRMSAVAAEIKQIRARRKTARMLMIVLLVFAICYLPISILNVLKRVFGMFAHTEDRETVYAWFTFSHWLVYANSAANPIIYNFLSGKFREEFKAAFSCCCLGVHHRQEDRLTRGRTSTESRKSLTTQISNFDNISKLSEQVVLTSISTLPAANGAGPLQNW
Protocol summary: Human OX2 receptor radioligand ([3H]EMPA) competition binding assay
Applied conditions: read-out: IC50/OX2; [3H]EMPA competition, human OX2 receptor membranes
Quantity: IC50 (nM)
Provide only the numeric value, understood in nM.

Specify IC50 for CCN(Cc1ccccc1)C(=O)CN(c1ccc(OC)nc1)S(=O)(=O)c1ncccc1C and stop. 4.4

---

So I've got IC50 readings for CYP2C19 (Homo sapiens, UniProt P33261), take a look.

Output reported IC50 of the molecule CCN(Cc1ccccc1)C(=O)CN(c1ccc(OC)nc1)S(=O)(=O)c1ncccc1C on CYP2C19 (Homo sapiens, UniProt P33261). > 5 µM

Fill in: IC50 on CYP2C19 (Homo sapiens, UniProt P33261), entry CCN(Cc1ccccc1)C(=O)CN(c1ccccc1OC)S(=O)(=O)c1ncccc1C > 5 µM

---

For each entry below, report its IC50 value.

Please report IC50 with CYP2C9 (Homo sapiens) for item CCN(Cc1ccccc1)C(=O)CN(c1ccccc1OC)S(=O)(=O)c1ncccc1C . > 5 µM

Specify IC50 for CCN(Cc1ccccc1)C(=O)CN(c1ccc(OC)nc1)S(=O)(=O)c1ncccc1C , system CYP2C9 (Homo sapiens). > 5 µM

---

System tested: human orexin 2 receptor (Homo sapiens, UniProt O43614)
Protocol summary: Human OX2 receptor radioligand ([3H]EMPA) competition binding assay
Quantity: IC50

State IC50 (human orexin 2 receptor (Homo sapiens, UniProt O43614)) of CCN(Cc1ccccc1)C(=O)CN(c1ccccc1OC)S(=O)(=O)c1ncccc1C . 7.1 nM

---

System tested: CYP3A4 (Homo sapiens, UniProt P08684)
Sequence (P08684 whole entry, species assumed): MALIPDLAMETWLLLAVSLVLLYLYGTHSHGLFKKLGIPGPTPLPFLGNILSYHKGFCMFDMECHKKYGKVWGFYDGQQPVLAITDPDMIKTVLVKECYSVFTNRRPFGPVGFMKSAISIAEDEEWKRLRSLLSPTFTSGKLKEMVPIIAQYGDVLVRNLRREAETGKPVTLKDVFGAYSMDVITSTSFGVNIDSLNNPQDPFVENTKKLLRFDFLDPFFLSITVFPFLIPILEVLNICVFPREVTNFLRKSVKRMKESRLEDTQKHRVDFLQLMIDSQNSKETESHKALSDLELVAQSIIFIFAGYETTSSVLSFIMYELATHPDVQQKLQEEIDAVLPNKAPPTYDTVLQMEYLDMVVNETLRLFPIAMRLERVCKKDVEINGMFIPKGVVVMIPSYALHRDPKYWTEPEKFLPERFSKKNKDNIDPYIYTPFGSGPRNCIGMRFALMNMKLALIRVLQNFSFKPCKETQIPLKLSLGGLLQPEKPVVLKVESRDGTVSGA
Protocol summary: biochemical
pIC50: −log10 of the molar value.
Quantity: pIC50

Return pIC50 for the following molecule: CCN(Cc1ccccc1)C(=O)CN(c1ccc(OC)nc1)S(=O)(=O)c1ncccc1C < 5.30

Please report pIC50 for the following molecule: CCN(Cc1ccccc1)C(=O)CN(c1ccccc1OC)S(=O)(=O)c1ncccc1C < 5.30

---

Here we list compounds with their recorded IC50 when tested on CYP2D6 (Homo sapiens, UniProt P10635).
Sequence (P10635 whole entry, species assumed): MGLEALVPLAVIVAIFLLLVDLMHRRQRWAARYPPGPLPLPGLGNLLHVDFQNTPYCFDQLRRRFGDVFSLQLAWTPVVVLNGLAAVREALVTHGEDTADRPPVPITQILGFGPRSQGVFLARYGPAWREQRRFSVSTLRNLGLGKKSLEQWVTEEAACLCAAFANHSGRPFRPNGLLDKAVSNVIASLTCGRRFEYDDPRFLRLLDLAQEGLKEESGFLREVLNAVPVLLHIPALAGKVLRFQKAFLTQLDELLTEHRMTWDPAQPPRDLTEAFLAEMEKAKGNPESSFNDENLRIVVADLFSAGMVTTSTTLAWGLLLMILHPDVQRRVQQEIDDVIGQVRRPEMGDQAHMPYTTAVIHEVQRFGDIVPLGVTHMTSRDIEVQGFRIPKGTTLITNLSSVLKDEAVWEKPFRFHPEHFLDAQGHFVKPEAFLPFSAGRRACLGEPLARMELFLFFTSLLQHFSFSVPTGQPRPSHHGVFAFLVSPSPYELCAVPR

// fetch IC50 given entry CCN(Cc1ccccc1)C(=O)CN(c1ccccc1OC)S(=O)(=O)c1ncccc1C [Compound 1] > 5 µM

Could you please provide reported IC50 for CCN(Cc1ccccc1)C(=O)CN(c1ccc(OC)nc1)S(=O)(=O)c1ncccc1C [Compound 2] ? Thanks! > 5 µM

---

Provide the reported IC50 of each item.
Target sequence: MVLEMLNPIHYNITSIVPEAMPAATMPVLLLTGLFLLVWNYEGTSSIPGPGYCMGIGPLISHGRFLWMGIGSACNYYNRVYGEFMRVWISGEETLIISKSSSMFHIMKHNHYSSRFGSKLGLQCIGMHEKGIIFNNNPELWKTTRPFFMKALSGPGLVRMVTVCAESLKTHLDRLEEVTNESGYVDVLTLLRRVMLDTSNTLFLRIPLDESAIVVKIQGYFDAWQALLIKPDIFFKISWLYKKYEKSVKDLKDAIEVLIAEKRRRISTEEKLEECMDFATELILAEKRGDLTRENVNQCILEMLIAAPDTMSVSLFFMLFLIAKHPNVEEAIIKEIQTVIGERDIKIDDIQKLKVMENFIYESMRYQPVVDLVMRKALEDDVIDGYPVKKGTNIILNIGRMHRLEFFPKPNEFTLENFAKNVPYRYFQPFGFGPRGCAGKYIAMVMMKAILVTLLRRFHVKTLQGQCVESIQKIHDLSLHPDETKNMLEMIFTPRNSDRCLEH

Answer with reported IC50 of CCN(Cc1ccccc1)C(=O)CN(c1ccc(OC)nc1)S(=O)(=O)c1ncccc1C > 5 µM

Give the reported value of IC50 for this record: CCN(Cc1ccccc1)C(=O)CN(c1ccccc1OC)S(=O)(=O)c1ncccc1C > 5 µM

---

System tested: peripheral benzodiazepine receptor (Rattus norvegicus, UniProt P16257)
Quantity: Ki (nM)
Please reply with the bare figure in nM and do not write the unit itself.

Answer with the recorded Ki for the compound listed here: CCN(Cc1ccccc1)C(=O)CN(c1ccccc1OC)S(=O)(=O)c1ncccc1C 253
